- test: Mouse pharmacokinetics
- Format: in vivo, ICR mouse
- measurement_setup: ICR, IV, 50 mg/kg, plasma
Reported Cmax values for the following compounds.
experimental_readout: Cmax (µg/mL)

> print(dat)
                                   compound  result
1  NCC1CC([C@@H]2CC[C@@H]3CN2C(=O)N3OS(=O)(=O)O)=NO1 (stereo partly drawn)    74.4
2  NCC1(CN)CC([C@@H]2CC[C@@H]3CN2C(=O)N3OS(=O)(=O)O)=NO1     103
3  O=C1N2C[C@@H](CC[C@H]2C2=NO[C@]3(CCNC3)C2)N1OS(=O)(=O)O    64.2
